target: GPR40 (Homo sapiens); assay: Cell-based aequorin assay (CHO cells stably expressing GPR40 and aequorin); parameters: expressed in transfected cells; host or cells: CHO cells stably transfected with GPR40 and aequorin; details: activation of human GPR40, CHO cells, 0.01% HSA
Sequence (O14842 whole entry): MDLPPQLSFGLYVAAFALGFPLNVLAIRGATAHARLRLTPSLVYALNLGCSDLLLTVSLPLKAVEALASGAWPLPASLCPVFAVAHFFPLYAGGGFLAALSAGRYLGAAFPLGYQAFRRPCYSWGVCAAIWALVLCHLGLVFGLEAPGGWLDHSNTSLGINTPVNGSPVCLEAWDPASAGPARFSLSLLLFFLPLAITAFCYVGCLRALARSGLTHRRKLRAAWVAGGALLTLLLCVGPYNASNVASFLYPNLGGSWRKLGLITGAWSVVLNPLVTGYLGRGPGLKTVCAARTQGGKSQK
For each of the molecules below, state its EC50.

QUERY: // lookup EC50 | system=GPR40 (Homo sapiens) | key= CCOCc1cc(COc2cccc(C(CC(=O)O)CC3CC3)c2)ccc1-c1cc(OC)ccc1F (single isomer, unassigned)
RESULT: 1000 to 10000 nM

QUERY: // lookup EC50 | system=GPR40 (Homo sapiens) | key= COC[C@H](CC(=O)O)c1cccc(OCc2ccc(-c3cc(OC)ccc3F)c(C(C)(C)C)c2)c1 (single isomer, unassigned)
RESULT: 100 to 1000 nM

QUERY: // lookup EC50 | system=GPR40 (Homo sapiens) | key= CCCC(CC(=O)O)c1cccc(OCc2ccc(-c3cc(OC)ccc3F)c(/C=C/C3CC3)c2)c1 (single isomer, unassigned)
RESULT: 1000 to 10000 nM

Entry source: patent US8030354B2
